# Assay Target: β-glucuronidase Type VII-A derived from Escherichia coli (Escherichia coli)
# Construct: purchased Sigma-Aldrich Corporation
# Procedure Details: Inhibition of β-glucuronidase activity (PNPG substrate, absorbance at 400 nm)
# Format: biochemical
# Recorded Conditions: 0.01 wt % in reaction solution; 1.6 units/mL enzyme; 37° C., 2 hours; pH 6.8; read-out: Inhibition rate (%) Concentration 0.01%
Readout Name: inhibition at 0.01 wt % (%)
Entry rule: numbers only, all in %.

Hey, β-glucuronidase Type VII-A derived from Escherichia coli (Escherichia coli) data for O=C(O)[C@@H](O)[C@H]1OC(=O)[C@H](O)[C@H]1O [D-Glucaro-1,4-lactone, D-glucaro-1,4-lactone, reference compound] : inhibition at 0.01 wt % came out at 80.4

Hey, β-glucuronidase Type VII-A derived from Escherichia coli (Escherichia coli) data for CC(C=O)Cc1ccc(C(C)(C)C)cc1 (stereo not shown) : inhibition at 0.01 wt % came out at 60.9

Hey, β-glucuronidase Type VII-A derived from Escherichia coli (Escherichia coli) data for CC(=O)OCCC(C)CCC=C(C)C (stereo not shown) [Citronellyl acetate, citronellyl acetate] : inhibition at 0.01 wt % came out at 44.8

Hey, β-glucuronidase Type VII-A derived from Escherichia coli (Escherichia coli) data for CC(C)=CCCC(C)CCO (stereo not shown) : inhibition at 0.01 wt % came out at 47.4

* * *

Provide the recorded inhibition at 0.01 wt % for the entries that follow.
# Assay Target: β-glucuronidase Type VII-A derived from Escherichia coli (Escherichia coli, UniProt P05804)
# Construct: purchased Sigma-Aldrich Corporation
# Sequence (P05804 whole entry): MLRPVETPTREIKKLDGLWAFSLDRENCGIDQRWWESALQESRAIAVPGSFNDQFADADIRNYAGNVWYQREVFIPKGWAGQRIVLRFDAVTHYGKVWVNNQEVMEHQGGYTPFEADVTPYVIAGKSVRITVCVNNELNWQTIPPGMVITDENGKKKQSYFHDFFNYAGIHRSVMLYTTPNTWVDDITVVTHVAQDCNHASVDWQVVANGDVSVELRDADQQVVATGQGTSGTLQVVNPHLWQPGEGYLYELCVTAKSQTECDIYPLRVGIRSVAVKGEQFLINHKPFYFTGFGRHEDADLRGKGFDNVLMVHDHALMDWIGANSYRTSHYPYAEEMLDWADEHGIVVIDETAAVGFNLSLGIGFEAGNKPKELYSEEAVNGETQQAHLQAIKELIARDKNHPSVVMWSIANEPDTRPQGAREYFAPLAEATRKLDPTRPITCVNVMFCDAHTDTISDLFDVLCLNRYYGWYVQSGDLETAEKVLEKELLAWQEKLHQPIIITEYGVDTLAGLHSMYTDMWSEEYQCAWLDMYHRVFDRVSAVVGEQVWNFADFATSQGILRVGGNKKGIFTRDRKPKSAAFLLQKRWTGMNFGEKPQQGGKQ
# Procedure Details: Inhibition of β-glucuronidase activity (PNPG substrate, absorbance at 400 nm)
# Assay type: biochemical
# Recorded Conditions: 0.01 wt % in reaction solution; 1.6 units/mL enzyme; 37° C., 2 hours; pH 6.8; read-out: Inhibition rate (%) Concentration 0.01%
Entry rule: numbers only, all in %.

inhibition at 0.01 wt % in this record for CC1=CCCC2(C)OC2CCC(C)=CCC1 (stereo not drawn) [Cedroxide] : 40.1

inhibition at 0.01 wt % in this record for O=C1CCCCCCCCCOCCCCCO1 [11-Oxa-16-hexadecanolide, 11-oxa-16-hexadecanolide] : 26.8

inhibition at 0.01 wt % in this record for CCC=CCCC=CC=O [2,6-Nonadienal, 2,6-nonadienal] : 60.9

inhibition at 0.01 wt % in this record for C=CCc1ccc(O)c(OC)c1 [Eugenol, eugenol] : 36.8

inhibition at 0.01 wt % in this record for Cc1ccc2c(c1)OCC(=O)CO2 [Calone] : 17.3

inhibition at 0.01 wt % in this record for CCCCCCC#CC(=O)OC [Methyl-2-nonynoate, methyl-2-nonynoate] : 95.3

inhibition at 0.01 wt % in this record for CC(CC=O)CCCC(C)(C)O (stereo not drawn) [Hydroxycitronellal, hydroxycitronellal] : 24.2

inhibition at 0.01 wt % in this record for O=C1CCCC=CCCCCCCCCCC1 [5-Cyclohexadecen-1-one, 5-cyclohexadecen-1-one] : 93.9

inhibition at 0.01 wt % in this record for CCCCCCCC1CCCC1=O (stereo not drawn) [2-Heptylcyclopentanone, 2-heptylcyclopentanone] : 17.1

inhibition at 0.01 wt % in this record for CC(C=O)Cc1ccc2c(c1)OCO2 (stereo not drawn) [Helional] : 32.4

inhibition at 0.01 wt % in this record for CC(CCO)CCc1ccccc1 (stereo not drawn) [Phenylhexanol, 3-methyl-5-phenyl-1-pentanol] : 52.1

inhibition at 0.01 wt % in this record for C=C(C)[C@@H]1CCC2=CC(=O)C[C@@H](C)[C@]2(C)C1 [Nootkatone, nootkatone] : 80.8
